Every entry's value here was drawn from patent US20060228349A1.

test system: T1, biotin-Aβ1-20 (biotin (position not given))
T1 peptide: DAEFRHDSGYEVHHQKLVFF
assay procedure: BIACORE, biotin-Aβ1-20 as antigen; column IgG1#2
measured property: pKd
# pKd: negative log10 of molar concentration; output just the value

QUERY: Endpoint output: pKd of 20C2-23A, affinity matured humanized 20C2, IgG1 humanized A version (antibody, V domains shown, also called 4P1-40) VH: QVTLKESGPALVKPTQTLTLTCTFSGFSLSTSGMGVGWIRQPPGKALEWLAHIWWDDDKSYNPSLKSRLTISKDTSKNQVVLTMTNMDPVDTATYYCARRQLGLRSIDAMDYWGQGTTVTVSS VL: DVVMTQSPLSLPVTPGEPASISCRSSQSILHSNGNTYLEWYLQKPGQSPQLLIYKVSNRFSGVPDRFSGSGSGTDFTLKISRVEAEDVGVYYCHQSSKVPLTFGQGTKLEIKR . Value?
RESULT: 8.82
